Where do these numbers come from? They come from ChEMBL document CHEMBL3882729.

Entries and their IC50
# Target System: Vascular endothelial growth factor receptor 2 (Homo sapiens, UniProt P35968)
# Sequence (P35968 whole entry, the tested form may be a part): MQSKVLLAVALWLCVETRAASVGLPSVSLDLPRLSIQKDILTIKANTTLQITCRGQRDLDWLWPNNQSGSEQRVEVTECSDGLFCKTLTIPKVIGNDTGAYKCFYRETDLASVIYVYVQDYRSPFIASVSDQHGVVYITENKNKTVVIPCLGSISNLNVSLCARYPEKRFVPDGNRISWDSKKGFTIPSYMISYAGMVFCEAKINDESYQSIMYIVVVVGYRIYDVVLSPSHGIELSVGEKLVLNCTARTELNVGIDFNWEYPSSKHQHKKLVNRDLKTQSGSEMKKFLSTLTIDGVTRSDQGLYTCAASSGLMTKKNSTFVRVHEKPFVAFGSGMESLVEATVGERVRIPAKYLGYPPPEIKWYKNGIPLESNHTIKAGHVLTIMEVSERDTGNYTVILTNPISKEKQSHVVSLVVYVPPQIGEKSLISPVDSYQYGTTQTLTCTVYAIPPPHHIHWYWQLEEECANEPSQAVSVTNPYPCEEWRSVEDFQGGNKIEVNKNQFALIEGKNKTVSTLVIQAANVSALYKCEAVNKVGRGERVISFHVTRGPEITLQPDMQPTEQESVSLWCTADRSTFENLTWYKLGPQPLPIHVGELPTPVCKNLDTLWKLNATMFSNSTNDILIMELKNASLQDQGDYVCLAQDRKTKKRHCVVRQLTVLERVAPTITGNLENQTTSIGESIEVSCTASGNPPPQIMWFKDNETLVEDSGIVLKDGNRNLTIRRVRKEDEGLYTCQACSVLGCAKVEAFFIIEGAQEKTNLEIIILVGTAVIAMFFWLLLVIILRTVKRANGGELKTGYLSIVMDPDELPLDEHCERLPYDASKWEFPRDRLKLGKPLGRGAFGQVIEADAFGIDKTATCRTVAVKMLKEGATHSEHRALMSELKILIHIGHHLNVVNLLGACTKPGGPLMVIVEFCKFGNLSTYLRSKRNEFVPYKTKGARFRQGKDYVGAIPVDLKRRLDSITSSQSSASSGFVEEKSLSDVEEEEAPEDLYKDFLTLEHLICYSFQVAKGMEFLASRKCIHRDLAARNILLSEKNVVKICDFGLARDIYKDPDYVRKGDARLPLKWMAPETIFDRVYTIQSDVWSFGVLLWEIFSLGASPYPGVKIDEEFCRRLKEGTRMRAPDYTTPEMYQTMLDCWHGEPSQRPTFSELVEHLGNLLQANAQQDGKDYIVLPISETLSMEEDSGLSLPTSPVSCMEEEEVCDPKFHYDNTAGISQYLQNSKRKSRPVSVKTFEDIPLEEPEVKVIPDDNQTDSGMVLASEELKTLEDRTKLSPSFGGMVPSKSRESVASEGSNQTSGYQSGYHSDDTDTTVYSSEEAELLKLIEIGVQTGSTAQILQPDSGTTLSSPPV
# Method: Inhibition of recombinant human N-terminal GST-fused KDR (D807 to V1356 residues) expressed in baculovirus infected […] insect Sf9 cells using poly-EY as substrate after 240 mins by luciferase coupled chemiluminescence assay

These recorded examples may help you get a feel for the data.
{"Compound": "COc1cc2c(Nc3ccc(Cl)c(Cl)c3)ncnc2cc1OCC1CN(C(=O)CCc2ccccc2)CCO1 (stereo unspecified)", "IC50": "50 to 1000 nM"}
{"Compound": "COc1cc2c(Nc3cccc(Br)c3C)ncnc2cc1OCC1CN(C)CCO1 (stereo unspecified)", "IC50": "50 to 1000 nM"}
{"Compound": "COc1cc2c(Nc3ccc(Cl)c(Cl)c3)ncnc2cc1OCC1CN(C(C)=O)CCCO1 (stereo unspecified)", "IC50": "50 to 1000 nM"}
{"Compound": "COCCOc1cc2c(Nc3ccc(Cl)c(Cl)c3)ncnc2cc1OCC1CN(C)CCO1 (stereo unspecified)", "IC50": "50 to 1000 nM"}
{"Compound": "COc1cc2c(Nc3ccc(Br)c(Cl)c3F)ncnc2cc1OCC1CN(C)C(C)(C)CO1 (stereo unspecified)", "IC50": "< 50 nM"}

Note: attention shifts to another entry.
Specify reported IC50 for the compound shown: COc1cc2c(Nc3ccc(Br)c(Cl)c3F)ncnc2cc1OC[C@@H]1CN(C)CC(=O)N1C
50 to 1000 nM

====

Entries and their pIC50
# Target System: Ephrin type-A receptor 2 (Homo sapiens, UniProt P29317)
# Sequence (P29317 whole entry, the tested form may be a part): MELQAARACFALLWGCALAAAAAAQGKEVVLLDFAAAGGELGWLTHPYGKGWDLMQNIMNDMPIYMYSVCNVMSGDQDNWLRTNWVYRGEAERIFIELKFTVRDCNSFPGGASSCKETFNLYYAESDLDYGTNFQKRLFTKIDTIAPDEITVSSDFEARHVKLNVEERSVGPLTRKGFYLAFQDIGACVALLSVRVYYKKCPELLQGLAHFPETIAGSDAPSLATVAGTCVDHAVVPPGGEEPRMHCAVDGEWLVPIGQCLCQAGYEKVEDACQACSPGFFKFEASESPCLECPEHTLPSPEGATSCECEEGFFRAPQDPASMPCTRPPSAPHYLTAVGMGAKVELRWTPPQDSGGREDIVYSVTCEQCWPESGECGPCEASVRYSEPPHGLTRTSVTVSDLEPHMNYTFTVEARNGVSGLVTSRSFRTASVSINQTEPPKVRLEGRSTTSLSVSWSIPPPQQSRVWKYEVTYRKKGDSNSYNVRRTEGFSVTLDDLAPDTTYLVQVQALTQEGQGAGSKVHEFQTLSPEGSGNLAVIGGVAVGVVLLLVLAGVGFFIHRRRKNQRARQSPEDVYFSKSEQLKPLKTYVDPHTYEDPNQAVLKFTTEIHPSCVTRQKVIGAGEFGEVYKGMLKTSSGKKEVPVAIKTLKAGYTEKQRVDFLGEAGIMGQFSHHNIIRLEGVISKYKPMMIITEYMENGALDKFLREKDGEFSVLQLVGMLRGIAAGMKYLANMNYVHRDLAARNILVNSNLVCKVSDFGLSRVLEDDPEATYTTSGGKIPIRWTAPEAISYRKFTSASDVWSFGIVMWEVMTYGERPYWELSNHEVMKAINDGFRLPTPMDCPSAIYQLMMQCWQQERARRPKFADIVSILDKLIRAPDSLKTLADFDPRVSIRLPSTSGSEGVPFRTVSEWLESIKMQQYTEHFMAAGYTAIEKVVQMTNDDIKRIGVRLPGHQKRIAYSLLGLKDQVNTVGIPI
# Method: Inhibition of recombinant human N-terminal His6-tagged EphA2 (N598 to R890 residues) expressed in baculovirus using poly-EY as substrate after 180 mins by luciferase coupled chemiluminescence assay
pIC50: −log10 of the molar value.

These recorded examples may help you get a feel for the data.
{"Compound": "CCCN1CCOC(COc2cc3ncnc(Nc4ccc(Cl)c(Cl)c4)c3cc2OC)C1 (centres undefined)", "pIC50": "6.00 to 7.30"}
{"Compound": "COc1cc2c(Nc3ccc(Br)c(Cl)c3)ncnc2cc1O[C@H]1CO[C@H]2[C@@H]1OC[C@@H]2SC", "pIC50": "4.70 to 6.00"}
{"Compound": "COc1cc2c(Nc3ccc(Cl)c(Cl)c3)ncnc2cc1OCC1CN(S(=O)(=O)CCCCl)CCO1 (centres undefined)", "pIC50": "6.00 to 7.30"}

Specify reported pIC50 for the compound shown: CC[C@@H](C)CN1CCOC(COc2cc3ncnc(Nc4ccc(Cl)c(Cl)c4)c3cc2OC)C1 (some centres undefined)
6.00 to 7.30

Specify reported pIC50 for the compound shown: COc1cc2c(Nc3ccc(Br)c(Cl)c3)ncnc2cc1O[C@H]1CO[C@H]2[C@@H]1OC[C@@H]2N
4.70 to 6.00

Specify reported pIC50 for the compound shown: COc1cc2c(Nc3ccc(Cl)c(Cl)c3)ncnc2cc1OCC1CN(C)C(C)(C)C(=O)O1 (centres undefined)
6.00 to 7.30

====

# Target System: Receptor tyrosine-protein kinase erbB-2 (Homo sapiens, UniProt P04626)
# Sequence (P04626 whole entry, the tested form may be a part): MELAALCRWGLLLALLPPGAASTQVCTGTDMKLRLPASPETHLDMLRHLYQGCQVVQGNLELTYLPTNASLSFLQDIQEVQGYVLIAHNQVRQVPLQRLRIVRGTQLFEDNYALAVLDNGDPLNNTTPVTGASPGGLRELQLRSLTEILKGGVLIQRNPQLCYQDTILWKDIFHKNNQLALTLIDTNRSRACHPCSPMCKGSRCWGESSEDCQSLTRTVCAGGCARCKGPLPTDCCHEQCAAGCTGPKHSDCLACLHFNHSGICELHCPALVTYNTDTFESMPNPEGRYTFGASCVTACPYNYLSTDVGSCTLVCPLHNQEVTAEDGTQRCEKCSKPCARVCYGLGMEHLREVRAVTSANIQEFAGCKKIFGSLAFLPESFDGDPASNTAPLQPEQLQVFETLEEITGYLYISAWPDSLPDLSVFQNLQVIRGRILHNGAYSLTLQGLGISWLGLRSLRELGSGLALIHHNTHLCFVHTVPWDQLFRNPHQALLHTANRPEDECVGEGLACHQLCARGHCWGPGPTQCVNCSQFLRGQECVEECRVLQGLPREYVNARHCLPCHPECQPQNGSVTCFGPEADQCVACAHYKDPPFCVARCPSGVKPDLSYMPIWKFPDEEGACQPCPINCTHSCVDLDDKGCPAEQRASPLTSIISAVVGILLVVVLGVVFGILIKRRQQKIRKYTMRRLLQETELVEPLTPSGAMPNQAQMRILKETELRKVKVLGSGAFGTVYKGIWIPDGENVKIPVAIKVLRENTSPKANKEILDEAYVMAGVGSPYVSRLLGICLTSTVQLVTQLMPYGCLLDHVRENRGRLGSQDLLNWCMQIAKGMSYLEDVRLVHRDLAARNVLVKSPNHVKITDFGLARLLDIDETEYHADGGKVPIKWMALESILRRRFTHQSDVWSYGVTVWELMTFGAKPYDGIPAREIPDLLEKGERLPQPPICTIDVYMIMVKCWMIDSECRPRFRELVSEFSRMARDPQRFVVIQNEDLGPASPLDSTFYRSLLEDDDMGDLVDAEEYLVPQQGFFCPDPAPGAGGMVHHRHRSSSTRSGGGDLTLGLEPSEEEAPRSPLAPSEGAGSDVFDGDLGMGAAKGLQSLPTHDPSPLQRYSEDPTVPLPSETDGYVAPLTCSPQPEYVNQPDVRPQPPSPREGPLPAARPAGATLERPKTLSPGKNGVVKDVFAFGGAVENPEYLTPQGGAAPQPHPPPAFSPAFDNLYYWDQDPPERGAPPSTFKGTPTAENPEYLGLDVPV
# Method: Inhibition of recombinant human N-terminal GST His6-tagged thrombin cleavage site-fused ErbB2 kinase domain (Q679 to V1255 residues) expressed in baculovirus infected insect Sf9 cells using biotinylated poly-EY as substrate after 60 mins by alphascreen assay
Entries and their IC50

These recorded examples may help you get a feel for the data.
{"Compound": "COc1cc2c(Nc3ccc(Cl)c(Cl)c3F)ncnc2cc1OCC1CN(C)CCO1 (stereo not drawn)", "IC50": "< 0.05 µM"}
{"Compound": "COc1cc2c(Nc3ccc(Cl)c(Cl)c3)ncnc2cc1OCC1CN(C)C(C)(C)C(=O)O1 (stereo not drawn)", "IC50": "0.05 to 1 µM"}
{"Compound": "CN[C@H]1CO[C@H]2[C@@H]1OC[C@@H]2Oc1cc2ncnc(Nc3ccc(Br)c(Cl)c3)c2cc1OC", "IC50": "1 to 20 µM"}
{"Compound": "COc1cc2c(Nc3ccc(Br)c(Cl)c3)ncnc2cc1OCC1CN(C)CCO1 (stereo not drawn)", "IC50": "0.05 to 1 µM"}
{"Compound": "COc1cc2c(Nc3ccc(Br)c(Cl)c3F)ncnc2cc1OC[C@@H]1CN2CCC[C@H]2C(=O)N1", "IC50": "1 to 20 µM"}

Specify reported IC50 for the compound shown: COc1cc2c(Nc3ccc(Cl)c(Cl)c3)ncnc2cc1OCc1csc(C2CCCN(C)C2)n1 (stereo not drawn)
0.05 to 1 µM

Specify reported IC50 for the compound shown: COc1cc2c(Nc3ccc(Cl)c(Cl)c3)ncnc2cc1OCC1CNCC(C)(C)O1 (stereo not drawn)
0.05 to 1 µM

Specify reported IC50 for the compound shown: CCN(CC)[C@H]1CO[C@H]2[C@@H]1OC[C@@H]2Oc1cc2ncnc(Nc3ccc(Br)c(Cl)c3)c2cc1OC
1 to 20 µM

====

Entries and their pIC50
# Target System: Ephrin type-B receptor 4 (Homo sapiens, UniProt P54760)
# Sequence (P54760 whole entry): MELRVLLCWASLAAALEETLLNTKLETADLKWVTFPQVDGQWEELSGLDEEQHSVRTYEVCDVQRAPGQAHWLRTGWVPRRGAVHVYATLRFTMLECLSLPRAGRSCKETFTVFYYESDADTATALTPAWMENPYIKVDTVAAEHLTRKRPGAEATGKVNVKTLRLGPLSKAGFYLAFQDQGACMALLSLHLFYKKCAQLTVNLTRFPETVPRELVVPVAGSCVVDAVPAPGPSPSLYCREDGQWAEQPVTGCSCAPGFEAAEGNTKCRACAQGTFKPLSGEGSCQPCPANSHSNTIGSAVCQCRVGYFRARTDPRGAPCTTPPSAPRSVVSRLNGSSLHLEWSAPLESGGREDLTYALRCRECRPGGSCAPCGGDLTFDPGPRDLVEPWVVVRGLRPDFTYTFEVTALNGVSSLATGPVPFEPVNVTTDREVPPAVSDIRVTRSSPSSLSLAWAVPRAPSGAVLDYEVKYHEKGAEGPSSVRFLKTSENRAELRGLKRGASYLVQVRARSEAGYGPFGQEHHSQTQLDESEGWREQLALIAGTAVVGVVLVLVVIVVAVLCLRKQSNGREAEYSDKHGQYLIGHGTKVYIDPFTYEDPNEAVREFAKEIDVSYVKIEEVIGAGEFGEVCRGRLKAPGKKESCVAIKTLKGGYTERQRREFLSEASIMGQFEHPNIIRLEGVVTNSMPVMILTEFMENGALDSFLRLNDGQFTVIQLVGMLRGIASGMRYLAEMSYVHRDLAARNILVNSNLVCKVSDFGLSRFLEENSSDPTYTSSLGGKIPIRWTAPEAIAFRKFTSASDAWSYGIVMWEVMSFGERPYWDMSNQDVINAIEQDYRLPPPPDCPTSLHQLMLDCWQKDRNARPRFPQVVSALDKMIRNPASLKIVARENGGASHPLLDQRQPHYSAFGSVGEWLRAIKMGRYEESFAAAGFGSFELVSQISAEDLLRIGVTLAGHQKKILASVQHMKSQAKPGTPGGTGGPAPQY
# Method: Inhibition of recombinant human N-terminal His6-tagged EphB4 kinase domain (E605 to E890 residues) expressed in baculovirus using poly-AEKY as substrate after 150 mins in presence of gamma33P-ATP by liquid scintillation spectrometry
pIC50: −log10 of the molar value.

These recorded examples may help you get a feel for the data.
{"Compound": "COc1cc2c(Nc3ccc(Cl)c(Cl)c3)ncnc2cc1OCC1CN(C(C)C(C)=O)CCO1 (centres undefined)", "Val": "6.00 to 7.30"}
{"Compound": "COc1cc2c(Nc3cccc(Cl)c3F)ncnc2cc1OCC1CN(/C(N)=N/C#N)CCCO1 (centres undefined)", "Val": "> 7.30"}
{"Compound": "COc1cc2c(Nc3ccc(Cl)c(Cl)c3)ncnc2cc1OC[C@H]1CN2CCC[C@@H]2CO1", "Val": "> 7.30"}
{"Compound": "COc1cc2c(Nc3ccc(Cl)c(C)c3)ncnc2cc1OCC1CN(C)CCO1 (centres undefined)", "Val": "6.00 to 7.30"}
{"Compound": "COc1cc2c(Nc3ccc(Cl)c(Cl)c3)ncnc2cc1OCC1CN(C(=O)Cc2ccc(Cl)cc2)CCO1 (centres undefined)", "Val": "6.00 to 7.30"}
{"Compound": "COc1cc2c(Nc3ccc(Br)cc3Cl)ncnc2cc1OCC1CN(C)CCO1 (centres undefined)", "Val": "6.00 to 7.30"}
{"Compound": "COc1cc2c(Nc3ccc(Cl)c(Cl)c3)ncnc2cc1OCC1CN(CC(N)=O)CCO1 (centres undefined)", "Val": "> 7.30"}
{"Compound": "COc1cc2c(Nc3ccc(Cl)c(Cl)c3)ncnc2cc1OCC1CN(Cc2ccc(F)cc2)CCO1 (centres undefined)", "Val": "6.00 to 7.30"}
{"Compound": "COc1cc2c(Nc3ccc(Br)cc3Br)ncnc2cc1OCC1CN(C)CCO1 (centres undefined)", "Val": "6.00 to 7.30"}
{"Compound": "COc1cc2c(Nc3ccc(Cl)c(Cl)c3)ncnc2cc1OCC1CN(C(C)=O)CCCO1 (centres undefined)", "Val": "> 7.30"}

Quote pIC50 with test system Ephrin type-B receptor 4 (Homo sapiens, UniProt P54760) for COc1cc2c(Nc3ccc(Cl)c(Cl)c3)ncnc2cc1OCc1noc(C2CCCN2C)n1 (centres undefined)
6.00 to 7.30

Quote pIC50 with test system Ephrin type-B receptor 4 (Homo sapiens, UniProt P54760) for CCCCCC(=O)N1CCOC(COc2cc3ncnc(Nc4ccc(Cl)c(Cl)c4)c3cc2OC)C1 (centres undefined)
6.00 to 7.30

Quote pIC50 with test system Ephrin type-B receptor 4 (Homo sapiens, UniProt P54760) for COc1cc2c(Nc3ccc(Cl)c(Cl)c3)ncnc2cc1OCC1CN(C2CCC2)CCO1 (centres undefined)
6.00 to 7.30

Quote pIC50 with test system Ephrin type-B receptor 4 (Homo sapiens, UniProt P54760) for COc1cc2c(Nc3cc(Cl)c(Br)cc3F)ncnc2cc1OC[C@@H]1CN2CCC[C@H]2CO1
> 7.30
